pIC50: recorded values
# target-desc: FAP-expressing human WI-38 fibroblasts (Homo sapiens)
# Construct: FAP-expressing human WI-38 fibroblasts (ECACC) were cultured in EMEM; host or cells: WI-38 human fibroblasts
# Sequence (Q12884 whole entry): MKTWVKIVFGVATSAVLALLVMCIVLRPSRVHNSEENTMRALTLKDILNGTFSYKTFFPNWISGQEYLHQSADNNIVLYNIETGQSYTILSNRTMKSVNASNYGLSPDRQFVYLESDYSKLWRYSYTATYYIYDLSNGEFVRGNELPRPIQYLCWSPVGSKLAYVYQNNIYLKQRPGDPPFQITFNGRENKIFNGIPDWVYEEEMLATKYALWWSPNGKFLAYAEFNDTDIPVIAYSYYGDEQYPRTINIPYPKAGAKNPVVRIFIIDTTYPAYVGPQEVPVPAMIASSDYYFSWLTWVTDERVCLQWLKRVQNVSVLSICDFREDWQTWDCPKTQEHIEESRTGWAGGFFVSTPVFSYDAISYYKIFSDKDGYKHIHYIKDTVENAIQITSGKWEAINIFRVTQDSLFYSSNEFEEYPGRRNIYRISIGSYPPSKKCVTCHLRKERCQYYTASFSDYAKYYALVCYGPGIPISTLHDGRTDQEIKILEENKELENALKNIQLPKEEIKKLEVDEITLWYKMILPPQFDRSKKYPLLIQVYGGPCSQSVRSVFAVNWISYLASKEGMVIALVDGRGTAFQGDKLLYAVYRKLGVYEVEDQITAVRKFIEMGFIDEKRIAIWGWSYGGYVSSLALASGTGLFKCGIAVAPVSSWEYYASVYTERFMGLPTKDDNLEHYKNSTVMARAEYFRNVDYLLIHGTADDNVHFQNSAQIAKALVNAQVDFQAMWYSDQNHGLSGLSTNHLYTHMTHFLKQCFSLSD
# protocol-details: Competitive FACS binding assay
# reported-conditions: pIC50 Category (FACS), competition with 3 nM Cy5-labeled compound, WI-38 fibroblasts, 4° C., 1 hour
pIC50: −log10 of the molar value. Numbered stars: 1 amine (or outer) side, 2 acyl side, 3 side chain; on linkers, the order of the positions; unused ones are H or OH. Bridge positions count the residues as written; N and C are the ends. Square brackets hold non-standard residues; d marks the D form. Peptide text beside a SMILES is read from it. * marks the point of attachment. TBMB(SCH2CH2NH-DOTA) = O=C(O)CN1CCN(CC(=O)O)CCN(CC(=O)NCCSCc2cc(C[*:1])cc(C[*:2])c2)CCN(CC(=O)O)CC1; X13 = O=C(O)CN1CCN(CC(=O)O)CCN(CC(=O)NCCSCc2cc(CSCCN[*:2])cc(C[*:1])c2)CCN(CC(=O)O)CC1; mXylylene = c1cc(C[*:1])cc(C[*:2])c1; Pentanesulfonyl = CCCCCS(=O)(=O)*; Hexanoyl = CCCCCC(=O)*; GABA = NCCCC(=O)O; βAla = NCCC(=O)O
test-readout: pIC50

[[record]]
molecule = "CCCCCC(=O)N[C@H]1CSCc2cc(CSCCNC(=O)CN3CCN(CC(=O)O)CCN(CC(=O)O)CCN(CC(=O)O)CC3)cc(c2)CSCCNC(=O)[C@H](Cc2ccccc2)NC(=O)[C@H](CCC(N)=O)NC(=O)[C@H]([C@@H](C)O)NC(=O)[C@@H]2CCCN2C(=O)[C@@H]2CCCN2C1=O [3BP-3654] (Hexanoyl-CPPTQF; linker 1-C via X13)"
reported_result = "> 8.00"

[[record]]
molecule = "CCCCCC(=O)N[C@H]1CSCc2cccc(c2)CSC[C@@H](C(=O)N[C@@H](CCCCNC(=O)CCC(=O)NCCCOCCOCCOCCCNC(=O)CN2CCN(CC(=O)O)CCN(CC(=O)O)CCN(CC(=O)O)CC2)CC(=O)O)NC(=O)[C@H](Cc2ccccc2)NC(=O)[C@H](CCC(N)=O)NC(=O)[C@H]([C@@H](C)O)NC(=O)[C@@H]2CCCN2C(=O)[C@@H]2CCCN2C1=O"
reported_result = "> 8.00"

[[record]]
molecule = "CSCC[C@H](NC(C)=O)C(=O)N[C@H]1CSCc2cccc(c2)CSC[C@@H](C(=O)N[C@@H](CC(=O)O)C(=O)N[C@@H](Cc2c[nH]cn2)C(=O)N[C@@H](Cc2ccccc2)C(=O)N[C@@H](CCCNC(=N)N)C(=O)N[C@@H](CC(=O)O)C(N)=O)NC(=O)[C@H](Cc2ccccc2)NC(=O)[C@@H](CCC(=O)O)NC(=O)[C@H]([C@@H](C)O)NC(=O)[C@@H]2CCCN2C(=O)[C@@H]2CCCN2C1=O [3BP-3179] (Ac-MCPPT[dE]FCDHFRD-NH2; linker 2-8 via mXylylene)"
reported_result = "7.10 to 8.00"

[[record]]
molecule = "CCCCCC(=O)N[C@H]1CSCc2cccc(c2)CSC[C@@H](C(=O)N[C@@H](CC(=O)O)C(=O)N[C@@H](CCCNC(=N)N)C(=O)O)NC(=O)[C@H](Cc2ccccc2)NC(=O)[C@H](CCC(=O)O)NC(=O)[C@H]([C@@H](C)O)NC(=O)[C@@H]2CCCN2C(=O)[C@@H]2CCCN2C1=O [3BP-3299] (Hexanoyl-CPPTEFCDR-OH; linker 1-7 via mXylylene)"
reported_result = "> 8.00"

[[record]]
molecule = "CSCC[C@H](NC(C)=O)C(=O)N[C@H]1CSCc2cccc(c2)CSC[C@@H](C(=O)N[C@@H](CC(=O)O)C(=O)N[C@@H](Cc2c[nH]cn2)C(=O)N[C@@H](C)C(=O)N[C@@H](CCCNC(=N)N)C(=O)N[C@@H](CC(=O)O)C(N)=O)NC(=O)[C@H](Cc2ccccc2)NC(=O)[C@H](CCC(=O)O)NC(=O)[C@H]([C@@H](C)O)NC(=O)[C@@H]2CCCN2C(=O)[C@@H]2CCCN2C1=O [3BP-3196] (Ac-MCPPTEFCDHARD-NH2; linker 2-8 via mXylylene)"
reported_result = "> 8.00"

[[record]]
molecule = "CC(=O)N[C@H]1CSCc2cccc(c2)CSC[C@@H](C(=O)N[C@@H](CC(=O)O)C(=O)N[C@@H](Cc2c[nH]cn2)C(=O)N[C@@H](Cc2ccccc2)C(=O)N[C@@H](CCCNC(=N)N)C(=O)N[C@@H](CC(=O)O)C(N)=O)NC(=O)[C@H](Cc2ccccc2)NC(=O)[C@H](CCC(=O)O)NC(=O)[C@H]([C@@H](C)O)NC(=O)[C@@H]2CCCN2C(=O)[C@@H]2CCCN2C1=O [3BP-3202] (Ac-CPPTEFCDHFRD-NH2; linker 1-7 via mXylylene)"
reported_result = "> 8.00"

[[record]]
molecule = "CCCCCC(=O)N[C@H]1CSCc2cccc(c2)CSC[C@@H](C(=O)NCCC(=O)O)NC(=O)[C@H](Cc2ccccc2)NC(=O)[C@H](CCC(=O)O)NC(=O)[C@H]([C@@H](C)O)NC(=O)[C@@H]2CCCN2C(=O)[C@@H]2CCCN2C1=O [3BP-3371] (Hexanoyl-CPPTEFC[βAla]-OH; linker 1-7 via mXylylene)"
reported_result = "> 8.00"

[[record]]
molecule = "CCCCCS(=O)(=O)N[C@H]1CSCc2cccc(c2)CSC[C@@H](C(=O)N[C@@H](CC(=O)O)C(N)=O)NC(=O)[C@H](Cc2ccccc2)NC(=O)[C@H](CCC(N)=O)NC(=O)[C@H]([C@@H](C)O)NC(=O)[C@@H]2CCCN2C(=O)[C@@H]2CCCN2C1=O [3BP-3514] (Pentanesulfonyl-CPPTQFCD-NH2; linker 1-7 via mXylylene)"
reported_result = "> 8.00"

[[record]]
molecule = "CCCCCC(=O)N[C@H]1CSCc2cccc(c2)CSC[C@@H](C(=O)N[C@@H](CC(=O)O)C(=O)NCCCC(=O)N[C@@H](CCCNC(=N)N)C(N)=O)NC(=O)[C@H](Cc2ccccc2)NC(=O)[C@H](CCC(=O)O)NC(=O)[C@H]([C@@H](C)O)NC(=O)[C@@H]2CCCN2C(=O)[C@@H]2CCCN2C1=O [3BP-3300] (Hexanoyl-CPPTEFCD[GABA]R-NH2; linker 1-7 via mXylylene)"
reported_result = "> 8.00"

[[record]]
molecule = "CCCCCC(=O)N[C@H]1CSCc2cc(CSCCNC(=O)CN3CCN(CC(=O)O)CCN(CC(=O)O)CCN(CC(=O)O)CC3)cc(c2)CSC[C@@H](C(=O)N[C@@H](CC(=O)O)C(N)=O)NC(=O)[C@H](Cc2ccccc2)NC(=O)[C@H](CCC(N)=O)NC(=O)[C@H]([C@@H](C)O)NC(=O)[C@@H]2CCCN2C(=O)[C@@H]2CCCN2C1=O [3BP-3426] (Hexanoyl-CPPTQFCD-NH2; linker 1-7 via TBMB(SCH2CH2NH-DOTA))"
reported_result = "> 8.00"

[[record]]
molecule = "CCCCCC(=O)N[C@H]1CSCc2cccc(c2)CSC[C@@H](C(N)=O)NC(=O)[C@H](Cc2ccccc2)NC(=O)[C@H](CCC(=O)O)NC(=O)[C@H]([C@@H](C)O)NC(=O)[C@@H]2CCCN2C(=O)CNC1=O [3BP-3345] (Hexanoyl-CGPTEFC-NH2; linker 1-7 via mXylylene)"
reported_result = "6.10 to 7.00"

